Reference source for all entries: patent US11384075B2

Molecular target: NIH/3T3 cells overexpressing FGFR3 WT-TACC3 fusion protein (Homo sapiens, UniProt P22607)
Construct: NIH/3T3 FGFR3 WT-TACC3 CTG (IC50); other: 72-hr incubation, CellTiter Glo, starting with 10 μM; fused on or other part: Q9Y6A5 (Transforming acidic coiled-coil-containing protein 3)
Sequence (P22607 whole entry, change not shown, the tested form may be a part): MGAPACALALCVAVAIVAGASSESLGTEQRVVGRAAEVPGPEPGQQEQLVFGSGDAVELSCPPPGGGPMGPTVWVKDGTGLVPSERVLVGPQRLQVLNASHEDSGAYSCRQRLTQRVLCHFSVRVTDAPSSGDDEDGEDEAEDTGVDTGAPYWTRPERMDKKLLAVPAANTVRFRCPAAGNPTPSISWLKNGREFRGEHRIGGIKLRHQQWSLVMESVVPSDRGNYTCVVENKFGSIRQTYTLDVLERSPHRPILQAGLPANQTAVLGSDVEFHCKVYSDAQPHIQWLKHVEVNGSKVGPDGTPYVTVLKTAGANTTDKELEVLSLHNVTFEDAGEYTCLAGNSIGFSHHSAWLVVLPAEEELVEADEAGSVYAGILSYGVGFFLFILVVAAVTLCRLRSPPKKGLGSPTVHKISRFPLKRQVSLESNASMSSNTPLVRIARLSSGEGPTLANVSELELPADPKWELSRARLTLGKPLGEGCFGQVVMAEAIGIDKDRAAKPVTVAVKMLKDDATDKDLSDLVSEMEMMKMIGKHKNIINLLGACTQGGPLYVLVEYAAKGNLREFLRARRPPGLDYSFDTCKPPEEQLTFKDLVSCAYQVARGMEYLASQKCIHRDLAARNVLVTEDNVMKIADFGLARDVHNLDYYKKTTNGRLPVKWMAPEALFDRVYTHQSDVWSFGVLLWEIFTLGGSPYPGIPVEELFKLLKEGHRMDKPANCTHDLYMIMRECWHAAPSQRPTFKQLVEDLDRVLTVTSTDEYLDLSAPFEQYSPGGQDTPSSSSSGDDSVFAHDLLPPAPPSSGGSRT
Experiment: NIH/3T3 FGFR3 WT-TACC3 cell proliferation assay
Format: cell-based
Settings: 72-hr incubation, CellTiter Glo, starting with 10 μM; read-out: NIH/3T3 FGFR3 WT-TACC3 CTG (IC50)
ASSAY_METRIC: GI50 (nM)

MOLECULE | SYSTEM_NAME | RECORDED_MEASUREMENT
CC(Nc1c(-c2nc3ccc(N4C[C@@H](C)O[C@H](C)C4)cc3[nH]2)c(=O)[nH]c2ccccc12)c1ncccn1 (single isomer, unassigned) [Compound 37a] | NIH/3T3 cells overexpressing FGFR3 WT-TACC3 fusion protein (Homo sapiens, UniProt P22607) | 11.7

[I] CC(Nc1c(-c2nc3ccc(-c4cnn(C)c4)cc3[nH]2)c(=O)[nH]c2ccccc12)c1ncccn1 (single isomer, unassigned) [Compound 53a]
[II] C[C@H](Nc1c(-c2nc3ccc(N4CCOCC4)c(F)c3[nH]2)c(=O)[nH]c2ccccc12)c1ccccn1
Of I and II , whose reported GI50 is numerically smaller? Could you answer with the label of the item you picked?
I
